test system: Staphylococcus aureus; assay: Antibacterial activity against Staphylococcus aureus MB2865 by turbidity method; assay type: functional; conditions: read-out: MIC100
Known MIC of a selection of compounds

- compound: "CO/C(C)=C1/NC(=O)[C@H]([C@@H](C)O)NC(=O)c2csc(n2)-c2cc(O)c(-c3nc(CNC(=O)NCC(O)CO)cs3)nc2-c2csc(n2)[C@@H]2COC(=O)c3c4c5c(cccc5n3O)COC(=O)[C@@H](O[C@H]3C[C@](C)(O)[C@H](N(C)C)[C@H](C)O3)[C@@H](OC4)[C@H](NC(=O)c3csc1n3)c1nc(cs1)C(=O)N2 (stereo partly drawn)"
  MIC (µg/mL): 0.06
- compound: "CO/C(C)=C1/NC(=O)[C@H]([C@@H](C)O)NC(=O)c2csc(n2)-c2cc(O)c(-c3nc(CN(C)C)cs3)nc2-c2csc(n2)[C@@H]2COC(=O)c3c4c5c(cccc5n3O)COC(=O)[C@@H](O[C@H]3C[C@](C)(O)[C@H](N(C)C)[C@H](C)O3)[C@@H](OC4)[C@H](NC(=O)c3csc1n3)c1nc(cs1)C(=O)N2"
  MIC (µg/mL): 0.03
- compound: "CO/C(C)=C1/NC(=O)[C@H]([C@@H](C)O)NC(=O)c2csc(n2)-c2cc(O)c(-c3nc(CNC(=O)C(C)NC(N)=O)cs3)nc2-c2csc(n2)[C@@H]2COC(=O)c3c4c5c(cccc5n3O)COC(=O)[C@@H](O[C@H]3C[C@](C)(O)[C@H](N(C)C)[C@H](C)O3)[C@@H](OC4)[C@H](NC(=O)c3csc1n3)c1nc(cs1)C(=O)N2 (stereo partly drawn)"
  MIC (µg/mL): 0.06
- compound: "CO/C(C)=C1/NC(=O)[C@H]([C@@H](C)O)NC(=O)c2csc(n2)-c2cc(O)c(-c3nc(CNC(=O)CCN4CCOCC4)cs3)nc2-c2csc(n2)[C@@H]2COC(=O)c3c4c5c(cccc5n3O)COC(=O)[C@@H](O[C@H]3C[C@](C)(O)[C@H](N(C)C)[C@H](C)O3)[C@@H](OC4)[C@H](NC(=O)c3csc1n3)c1nc(cs1)C(=O)N2"
  MIC (µg/mL): 0.06
- compound: "CO/C(C)=C1/NC(=O)[C@H]([C@@H](C)O)NC(=O)c2csc(n2)-c2cc(O)c(-c3nc(CNC(=O)CN4CCN(C)CC4)cs3)nc2-c2csc(n2)[C@@H]2COC(=O)c3c4c5c(cccc5n3O)COC(=O)[C@@H](O[C@H]3C[C@](C)(O)[C@H](N(C)C)[C@H](C)O3)[C@@H](OC4)[C@H](NC(=O)c3csc1n3)c1nc(cs1)C(=O)N2"
  MIC (µg/mL): 0.0375
- compound: "CO/C(C)=C1/NC(=O)[C@H]([C@@H](C)O)NC(=O)c2csc(n2)-c2cc(O)c(-c3nc(CNCc4cncnc4)cs3)nc2-c2csc(n2)[C@@H]2COC(=O)c3c4c5c(cccc5n3O)COC(=O)[C@@H](O[C@H]3C[C@](C)(O)[C@H](N(C)C)[C@H](C)O3)[C@@H](OC4)[C@H](NC(=O)c3csc1n3)c1nc(cs1)C(=O)N2"
  MIC (µg/mL): 0.0225
- compound: "CO/C(C)=C1/NC(=O)[C@H]([C@@H](C)O)NC(=O)c2csc(n2)-c2cc(O)c(-c3nc(CNCC(O)CO)cs3)nc2-c2csc(n2)[C@@H]2COC(=O)c3c4c5c(cccc5n3O)COC(=O)[C@@H](O[C@H]3C[C@](C)(O)[C@H](N(C)C)[C@H](C)O3)[C@@H](OC4)[C@H](NC(=O)c3csc1n3)c1nc(cs1)C(=O)N2 (stereo partly drawn)"
  MIC (µg/mL): 0.06
- compound: "CO/C(C)=C1/NC(=O)[C@H]([C@@H](C)O)NC(=O)c2csc(n2)-c2cc(O)c(-c3nc(CNCC[C@H](O)[C@H](O)CO)cs3)nc2-c2csc(n2)[C@@H]2COC(=O)c3c4c5c(cccc5n3O)COC(=O)[C@@H](O[C@H]3C[C@](C)(O)[C@H](N(C)C)[C@H](C)O3)[C@@H](OC4)[C@H](NC(=O)c3csc1n3)c1nc(cs1)C(=O)N2"
  MIC (µg/mL): 0.125
